- Test system: human telomerase
- test.protocol: TRAP assay of telomerase activity in HME50-5 cell extracts preincubated with PNA or PS oligomer
- Assay type: biochemical
- recorded.conditions: HME50-5 cell extract, 25° C., 30 min preincubation; listed as PNA X; read-out: IC50 (nM) Cell Extract 25° C.
measured.metric: IC50

Prompt line: Consider the substance PNA (X): complementary PNA, sequence GTTAGGGTTAGAC (antisense; all peptide nucleic acid (PNA)) and give its measured IC50.
Response line: ~10 nM

---

- Test system: human telomerase
- test.protocol: TRAP assay of telomerase activity in HME50-5 cell extracts preincubated with PNA or PS oligomer
- Format: biochemical
- recorded.conditions: HME50-5 cell extract, 37° C.; read-out: IC50 (nM) Cell Extract 37° C.
Kindly supply the reported IC50 values for the records listed here.
Give bare numbers, in nM.

{"columns": ["substance", "measured.metric", "quantitative.readout"],
 "data": [
  ["PS (III): complementary phosphorothioate oligonucleotide TAGGGTTAGACAA (all phosphorothioate, sugars by position and methylation of C not given here) [reference compound]", "IC50", 200]
]}

Please turn your attention to the following entry.
Prompt line: Consider the substance PS (IV): non-complementary phosphorothioate oligonucleotide AGGATCTTCACCTAGATCCT (all phosphorothioate, sugars by position and methylation of C not given here) [reference compound] and give its measured IC50.
Response line: 400
